Please provide measured MIC for the entries that follow.
Test system: Acinetobacter baumannii ABA19-1
Assay type: cell-based
conditionsUsed: ABA19-1
Bridge positions count the residues as written; N and C are the ends. Square brackets hold non-standard residues; d marks the D form. Peptide text beside a SMILES is read from it. * marks the point of attachment. Heptanoyl = CCCCCCC(=O)*; Orn = NCCC[C@H](N)C(=O)O; Dab = NCC[C@H](N)C(=O)O
All answers are understood in µg/mL, so give the number only.

molecule CCCCCCC(=O)N[C@@H](CCN)C(=O)N[C@H](C(=O)N[C@@H](CCN)C(=O)N[C@H]1CCNC(=O)[C@H]([C@@H](C)O)NC(=O)[C@H](CCN)NC(=O)[C@H](CCN)NC(=O)[C@H]([C@@H](C)O)NC(=O)[C@@H](Cc2ccccc2)NC(=O)[C@H](CCN)NC1=O)[C@@H](C)O [Compound 19] (Heptanoyl-[Dab]T[Dab][Dab][Dab][dF]T[Dab][Dab]T; lactam 4-C) , MIC observed: 0.5

molecule CCCCCCC(=O)N[C@@H](CCN)C(=O)N[C@H](C(=O)N[C@@H](CCCN)C(=O)N[C@H]1CCNC(=O)[C@H]([C@@H](C)O)NC(=O)[C@H](CCN)NC(=O)[C@H](CCN)NC(=O)[C@H]([C@@H](C)O)NC(=O)[C@@H](Cc2ccccc2)NC(=O)[C@H](CCN)NC1=O)[C@@H](C)O [Compound 29] (Heptanoyl-[Dab]T[Orn][Dab][Dab][dF]T[Dab][Dab]T; lactam 4-C) , MIC observed: 0.125

molecule CCCCCCC(=O)N[C@@H](CCN)C(=O)N[C@H](C(=O)N[C@@H](CCCN)C(=O)N[C@H]1CCNC(=O)[C@H]([C@@H](C)O)NC(=O)[C@H](CCN)NC(=O)[C@H](CCN)NC(=O)[C@H](CC(C)C)NC(=O)[C@@H](Cc2ccccc2)NC(=O)[C@H](CCN)NC1=O)[C@@H](C)O [Compound 49] (Heptanoyl-[Dab]T[Orn][Dab][Dab][dF]L[Dab][Dab]T; lactam 4-C) , MIC observed: 0.125

---

Please provide measured MIC for the entries that follow.
Tested on: Acinetobacter baumannii NCTC 13304 (OXA-27)
Type: cell-based
conditionsUsed: NCTC 13304
Bridge positions count the residues as written; N and C are the ends. Square brackets hold non-standard residues; d marks the D form. Peptide text beside a SMILES is read from it. * marks the point of attachment. Heptanoyl(6-Me) = CC(C)CCCCC(=O)*; Nonanoyl = CCCCCCCCC(=O)*; X1 = CC[C@H](C)CCCCC(=O)*; Heptanoyl = CCCCCCC(=O)*; Octanoyl = CCCCCCCC(=O)*; Orn = NCCC[C@H](N)C(=O)O; dDap = NC[C@@H](N)C(=O)O; Dab = NCC[C@H](N)C(=O)O; Dap = NC[C@H](N)C(=O)O
All answers are understood in µg/mL, so give the number only.

molecule CCCCCCC(=O)N[C@@H](CCN)C(=O)N[C@H](C(=O)N[C@H](CO)C(=O)N[C@H]1CCNC(=O)[C@H]([C@@H](C)O)NC(=O)[C@H](CN)NC(=O)[C@H](CCN)NC(=O)[C@H]([C@@H](C)O)NC(=O)[C@@H](Cc2ccccc2)NC(=O)[C@H](CCN)NC1=O)[C@@H](C)O [Compound 84] (Heptanoyl-[Dab]T[dS][Dab][Dab][dF]T[Dab][Dap]T; lactam 4-C) , MIC observed: 0.03

molecule CCCCCCCC(=O)N[C@@H](CCN)C(=O)N[C@H](C(=O)N[C@@H](CCCN)C(=O)N[C@H]1CCNC(=O)[C@H]([C@@H](C)O)NC(=O)[C@H](CCN)NC(=O)[C@H](CCN)NC(=O)[C@H](CC(C)C)NC(=O)[C@@H](Cc2ccccc2)NC(=O)[C@H](CCN)NC1=O)[C@@H](C)O [Compound 48] (Octanoyl-[Dab]T[Orn][Dab][Dab][dF]L[Dab][Dab]T; lactam 4-C) , MIC observed: 0.06

molecule CC(C)CCCCC(=O)N[C@@H](CCN)C(=O)N[C@H](C(=O)N[C@H](CN)C(=O)N[C@H]1CCNC(=O)[C@H]([C@@H](C)O)NC(=O)[C@H](CCN)NC(=O)[C@H](CCN)NC(=O)[C@H](CC(C)C)NC(=O)[C@@H](Cc2ccccc2)NC(=O)[C@H](CCN)NC1=O)[C@@H](C)O [Compound 32] ({Heptanoyl(6-Me)}-[Dab]T[dDap][Dab][Dab][dF]L[Dab][Dab]T; lactam 4-C) , MIC observed: 0.03

molecule CCCCCCCC(=O)N[C@@H](CCN)C(=O)N[C@H](C(=O)N[C@@H](CCN)C(=O)N[C@H]1CCNC(=O)[C@H]([C@@H](C)O)NC(=O)[C@H](CCN)NC(=O)[C@H](CCN)NC(=O)[C@H]([C@@H](C)O)NC(=O)[C@@H](Cc2ccccc2)NC(=O)[C@H](CCN)NC1=O)[C@@H](C)O [Compound 18] (Octanoyl-[Dab]T[Dab][Dab][Dab][dF]T[Dab][Dab]T; lactam 4-C) , MIC observed: 0.25

molecule CCCCCCC(=O)N[C@@H](CCN)C(=O)N[C@H](C(=O)N[C@H](CN)C(=O)N[C@H]1CCNC(=O)[C@H]([C@@H](C)O)NC(=O)[C@H](CCN)NC(=O)[C@H](CCN)NC(=O)[C@H]([C@@H](C)O)NC(=O)[C@@H](Cc2ccccc2)NC(=O)[C@H](CCN)NC1=O)[C@@H](C)O [Compound 4] (Heptanoyl-[Dab]T[dDap][Dab][Dab][dF]T[Dab][Dab]T; lactam 4-C) , MIC observed: 0.03

molecule CC[C@H](C)CCCCC(=O)N[C@@H](CCCN)C(=O)N[C@H](C(=O)N[C@H](CO)C(=O)N[C@H]1CCNC(=O)[C@H]([C@@H](C)O)NC(=O)[C@H](CCN)NC(=O)[C@H](CCN)NC(=O)[C@H]([C@@H](C)O)NC(=O)[C@@H](Cc2ccccc2)NC(=O)[C@H](CCN)NC1=O)[C@@H](C)O [Compound 56] (X1-[Orn]T[dS][Dab][Dab][dF]T[Dab][Dab]T; lactam 4-C) , MIC observed: 0.25

molecule CCCCCCCCC(=O)N[C@@H](CCN)C(=O)N[C@H](C(=O)N[C@H](CN)C(=O)N[C@H]1CCNC(=O)[C@H]([C@@H](C)O)NC(=O)[C@H](CCN)NC(=O)[C@H](CCN)NC(=O)[C@H](CC(C)C)NC(=O)[C@@H](Cc2ccccc2)NC(=O)[C@H](CCN)NC1=O)[C@@H](C)O [Compound 35] (Nonanoyl-[Dab]T[dDap][Dab][Dab][dF]L[Dab][Dab]T; lactam 4-C) , MIC observed: 0.06

molecule CC[C@H](C)CCCCC(=O)N[C@@H](CCN)C(=O)N[C@H](C(=O)N[C@@H](CN)C(=O)N[C@H]1CCNC(=O)[C@H]([C@@H](C)O)NC(=O)[C@H](CCN)NC(=O)[C@H](CCN)NC(=O)[C@H](CC(C)C)NC(=O)[C@@H](Cc2ccccc2)NC(=O)[C@H](CCN)NC1=O)[C@@H](C)O [Compound 36] (X1-[Dab]T[Dap][Dab][Dab][dF]L[Dab][Dab]T; lactam 4-C) , MIC observed: 0.03

molecule CCCCCCCCC(=O)N[C@@H](CCN)C(=O)N[C@H](C(=O)N[C@@H](CN)C(=O)N[C@H]1CCNC(=O)[C@H]([C@@H](C)O)NC(=O)[C@H](CCN)NC(=O)[C@H](CCN)NC(=O)[C@H](CC(C)C)NC(=O)[C@@H](Cc2ccccc2)NC(=O)[C@H](CCN)NC1=O)[C@@H](C)O [Compound 40] (Nonanoyl-[Dab]T[Dap][Dab][Dab][dF]L[Dab][Dab]T; lactam 4-C) , MIC observed: 0.06

molecule CCCCCCCCC(=O)N[C@@H](CCN)C(=O)N[C@H](C(=O)N[C@H](CO)C(=O)N[C@H]1CCNC(=O)[C@H]([C@@H](C)O)NC(=O)[C@H](CCN)NC(=O)[C@H](CN)NC(=O)[C@H]([C@@H](C)O)NC(=O)[C@@H](Cc2ccccc2)NC(=O)[C@H](CCN)NC1=O)[C@@H](C)O [Compound 75] (Nonanoyl-[Dab]T[dS][Dab][Dab][dF]T[Dap][Dab]T; lactam 4-C) , MIC observed: 0.03

Values were extracted from patent EP4725957A1.
